Quick list: TbrCatL 10’ Inhibition per entry.
# subject of test: TbrCatL (Trypanosoma brucei rhodesiense, UniProt Q95PM0)
# Construct: Conor Caffrey (University of California San Diego)
# Sequence (Q95PM0 entry or part of it): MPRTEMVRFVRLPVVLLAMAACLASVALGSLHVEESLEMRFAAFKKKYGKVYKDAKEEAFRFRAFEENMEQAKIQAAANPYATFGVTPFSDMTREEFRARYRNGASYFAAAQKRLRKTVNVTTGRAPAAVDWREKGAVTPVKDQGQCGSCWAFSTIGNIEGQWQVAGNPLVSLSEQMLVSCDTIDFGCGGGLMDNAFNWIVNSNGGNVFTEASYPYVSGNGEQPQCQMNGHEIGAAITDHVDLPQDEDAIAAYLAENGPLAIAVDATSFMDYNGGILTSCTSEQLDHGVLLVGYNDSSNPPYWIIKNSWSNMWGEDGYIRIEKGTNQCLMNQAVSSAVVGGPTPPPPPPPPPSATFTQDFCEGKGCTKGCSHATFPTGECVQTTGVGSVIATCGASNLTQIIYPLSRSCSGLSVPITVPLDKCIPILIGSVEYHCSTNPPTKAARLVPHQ
# protocol details: TbrCatL enzymatic inhibition assay (cleavage of fluorogenic substrate Z-FR-AMC);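 also: at 5 µM compound concentration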
# Format: biochemical
# study conditions: 10’ (pre-incubation time); sheet "Screening results"

{"compound": "C[C@H]1CS(=O)(=O)CCN1/N=C/c1ccc([N+](=O)[O-])o1 [MMV001499]", "TbrCatL 10’ Inhibition (%)": 11}
{"compound": "c1ccc(Oc2ccc(-c3cc(N4CCNCC4)[nH]n3)cc2)cc1 [MMV687706]", "TbrCatL 10’ Inhibition (%)": 23}
{"compound": "FC(F)(F)c1ccc(N(c2cccnc2)C2CCN(c3ccc(C(F)(F)F)cn3)CC2)cc1 [MMV689243]", "TbrCatL 10’ Inhibition (%)": -5}
{"compound": "CC(C(=O)N1CCCC1)N1CCN(S(=O)(=O)c2ccc(C(C)(C)C)cc2)CC1 (stereo not shown) [MMV020291]", "TbrCatL 10’ Inhibition (%)": 8}
{"compound": "CC(C)(C)n1nc(Cc2cccc3ccccc23)c2c(N)ncnc21 [MMV676599]", "TbrCatL 10’ Inhibition (%)": -5}
{"compound": "O=C1O[C@@H](CO)CN1c1cc(F)c(C2=CCN(Cc3ccccc3)CC2)c(F)c1 [MMV687729]", "TbrCatL 10’ Inhibition (%)": -6.5}
{"compound": "Cc1cc(Nc2ccc(C(F)(F)F)cc2)n2ccnc2n1 [MMV011229]", "TbrCatL 10’ Inhibition (%)": 6}
{"compound": "Nc1ncc(Br)cc1-c1nc2cc(Cl)cnc2[nH]1 [MMV676358]", "TbrCatL 10’ Inhibition (%)": -2.5}
{"compound": "O=C(NCCc1ccn(-c2ccccc2)n1)C1CCCCC1 [MMV688795]", "TbrCatL 10’ Inhibition (%)": 5.4}
{"compound": "CCOc1ccccc1NC(C)C(=O)Nc1cc(C(F)(F)F)ccc1N1CCOCC1 (stereo not shown) [MMV407834]", "TbrCatL 10’ Inhibition (%)": -7}
{"compound": "CN1CCN(c2nccc3[nH]c(-c4cccc(F)c4)cc23)CC1 [MMV393144]", "TbrCatL 10’ Inhibition (%)": -8}
{"compound": "Cc1nc(-c2cccc(NCc3ccccc3)c2)[nH]c1C [MMV023227]", "TbrCatL 10’ Inhibition (%)": 22}
{"compound": "FC(F)(F)c1cnc(Sc2nnc(-c3ccncc3)o2)c(Cl)c1 [MMV011765]", "TbrCatL 10’ Inhibition (%)": -1.2}
{"compound": "CNc1cc(C)nc(C2CN(C(=O)c3n[nH]c4ccccc34)CCO2)c1 (stereo not shown) [MMV689709]", "TbrCatL 10’ Inhibition (%)": 3.8}
{"compound": "c1ccc(Oc2ccc(-c3cc(CN4CCOCC4)[nH]n3)cc2)cc1 [MMV676161]", "TbrCatL 10’ Inhibition (%)": -2.5}
{"compound": "CCN(CC)CCCN1CCN(C(=O)c2cccc(-c3noc(C(F)(F)F)n3)c2)CC1 [MMV022236]", "TbrCatL 10’ Inhibition (%)": 16}
{"compound": "c1ccc(Oc2ccc(-c3cc(N4CCOCC4)n[nH]3)cc2)cc1 [MMV045105]", "TbrCatL 10’ Inhibition (%)": 22}
{"compound": "O=C(Nc1ccc(C(F)(F)F)c(C(F)(F)F)c1)c1cc(Cl)ccc1O [MMV687807]", "TbrCatL 10’ Inhibition (%)": -5}
{"compound": "CC(C)(C)CN1C(=O)C(c2ccccc2)(c2ccccc2)N=C1N [MMV026550]", "TbrCatL 10’ Inhibition (%)": 0.2}
